Here, compounds appear alongside IC50 reported for Cytochrome P450 2D6 (Homo sapiens) in the literature.

Problem: # query: IC50 of entry CC(C)=CCC[C@](C)(O[C@@H]1O[C@H](CO)[C@@H](O)[C@H](O)[C@H]1O)[C@H]1CC[C@]2(C)[C@@H]1[C@H](O)C[C@@H]1[C@@]3(C)CC[C@H](O)C(C)(C)[C@@H]3[C@@H](O[C@@H]3O[C@H](CO)[C@@H](O)[C@H](O)[C@H]3O)C[C@]12C
Solution: > 50 µM

Problem: # query: IC50 of entry COC(=O)COc1cccc(C(C)=NOCc2ccc([N+](=O)[O-])cc2)c1
Solution: > 50 µM

Problem: # query: IC50 of entry N#Cc1cccc(-c2noc(-c3cccnc3)n2)c1
Solution: > 30 µM

Problem: # query: IC50 of entry COc1ccc(C(=C2C=CC(=O)C=C2)c2c(-c3ccc(O)cc3)ccc(CO)c2C#Cc2ccc(O)cc2)cc1
Solution: 6.8 µM

Problem: # query: IC50 of entry CC(C)=CCC[C@](C)(O[C@@H]1O[C@H](CO[C@@H]2O[C@H](CO)[C@@H](O)[C@H](O)[C@H]2O)[C@@H](O)[C@H](O)[C@H]1O)[C@H]1CC[C@]2(C)[C@@H]1[C@H](O)C[C@@H]1[C@@]3(C)CC[C@H](O[C@@H]4O[C@H](CO)[C@@H](O)[C@H](O)[C@H]4O[C@@H]4O[C@H](CO)[C@@H](O)[C@H](O)[C@H]4O)C(C)(C)[C@@H]3CC[C@]12C
Solution: > 50 µM

Problem: # query: IC50 of entry C#Cc1cn([C@@H]2S[C@H](CO)[C@@H](O)[C@H]2O)c2ncnc(N)c12
Solution: > 20 µM

Problem: # query: IC50 of entry O=C(CC(F)(F)C(=O)N1N=C(c2c(-c3ccc(Cl)cc3)c3ccccc3[nH]c2=O)CC1c1ccc(Cl)cc1)OCc1ccccc1 (stereo not drawn)
Solution: > 20 µM

Problem: # query: IC50 of entry Cc1ccc(C[C@H](NC(=O)c2ccncc2)C(=O)N[C@H](/C=C/S(=O)(=O)c2ccccc2)CCc2ccccc2)cc1
Solution: 2.7 µM

Problem: # query: IC50 of entry O=c1cc(-c2ccc(O)cc2)oc2c(-c3c(O)cc(O)c4c(=O)cc(-c5ccc(O)cc5)oc34)c(O)cc(O)c12
Solution: 2.7 µM

Problem: # query: IC50 of entry NC(=O)CC(F)(F)C(=O)N1N=C(c2c(-c3ccc(Cl)cc3)c3ccccc3[nH]c2=O)CC1c1ccc(Cl)cc1 (stereo not drawn)
Solution: > 20 µM

Problem: # query: IC50 of entry CNC(=O)CC(F)(F)C(=O)N1N=C(c2c(-c3ccc(Cl)cc3)c3ccccc3[nH]c2=O)CC1c1ccc(Cl)cc1 (stereo not drawn)
Solution: > 20 µM

Problem: # query: IC50 of entry C[C@@]12C[C@@]3(O)O[C@@H](O1)[C@]1(COC(=O)c4ccccc4)[C@H]3C[C@@]12O[C@@H]1O[C@H](CO)[C@@H](O)[C@H](O)[C@H]1O
Solution: 12700 µM
